target_system: E. coli GlpG (Escherichia coli)
Sequence (P09391 whole entry): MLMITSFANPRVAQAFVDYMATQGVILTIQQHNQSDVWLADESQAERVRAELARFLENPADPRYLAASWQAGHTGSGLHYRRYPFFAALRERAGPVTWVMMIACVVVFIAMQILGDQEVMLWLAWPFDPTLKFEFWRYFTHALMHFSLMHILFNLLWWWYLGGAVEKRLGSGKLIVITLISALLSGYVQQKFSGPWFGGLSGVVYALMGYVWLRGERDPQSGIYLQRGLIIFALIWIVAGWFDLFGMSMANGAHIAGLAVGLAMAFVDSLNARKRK
attribute_measured: pIC50
Lab note — pIC50 values are minus log10 of concentrations in M.

Provide value of pIC50 for this record tested with E. coli GlpG (Escherichia coli): `Cc1ccc(S(=O)(=O)N[C@@H](Cc2ccccc2)C(=O)CCl)cc1`
3.53
